Where these numbers come from: patent US20030068675

System name: ZFP SBS#441 (synthetic)
Sequence (chain, as listed by the source): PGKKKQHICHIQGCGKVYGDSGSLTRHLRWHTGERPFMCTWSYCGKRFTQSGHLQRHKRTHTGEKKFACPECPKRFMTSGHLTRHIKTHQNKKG
Protocol description: EMSA
Conditions used: tags: MBP fusion
pKd: −log10 of the molar value.
Endpoint: pKd

- Binder: "GGTGGAGTCA (dsDNA) DNA 1: GGTGGAGTCA DNA 2: TGACTCCACC"
  Result: 6.60
